- Measurement target: T1, Mouse IL2Rγ extracellular domain expressed with a C-terminal myc-myc-hexahistidine tag (mouse)
- T1 construct: whole entry is the tagged construct; also called mIL-2Rg-MMH
- T1 chain: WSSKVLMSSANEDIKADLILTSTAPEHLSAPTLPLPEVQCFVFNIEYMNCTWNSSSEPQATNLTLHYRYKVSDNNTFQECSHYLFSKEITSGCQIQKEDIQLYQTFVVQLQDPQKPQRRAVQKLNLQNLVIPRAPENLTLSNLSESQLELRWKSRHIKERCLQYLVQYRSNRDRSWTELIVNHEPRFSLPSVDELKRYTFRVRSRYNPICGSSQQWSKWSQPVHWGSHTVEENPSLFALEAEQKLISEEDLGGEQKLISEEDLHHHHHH
- Procedure text: SPR Biacore 4000, anti-hFc-captured mAb, 25 C
Experimental endpoint: 100 nM Ag Bound (RU)
Return type: number; implicit unit RU.

Query: Could you tell me which 100 nM Ag Bound is on file for H4H12858P (antibody, human IgG4 S228P, kappa, V domains shown, fully human anti-IL2Rgamma mAb, human IgG4 Fc; also called REGN9433) VH: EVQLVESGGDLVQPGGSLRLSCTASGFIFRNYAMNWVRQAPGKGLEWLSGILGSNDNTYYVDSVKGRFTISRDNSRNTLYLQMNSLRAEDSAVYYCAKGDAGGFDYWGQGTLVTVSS VL: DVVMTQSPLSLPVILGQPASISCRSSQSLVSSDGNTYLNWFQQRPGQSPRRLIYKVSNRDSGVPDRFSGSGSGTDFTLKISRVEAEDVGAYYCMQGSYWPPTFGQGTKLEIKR ?
Result: 2

Query: Need 100 nM Ag Bound, item H4H13538P (antibody, human IgG4 S228P, kappa, V domains shown, fully human anti-IL2Rgamma mAb, human IgG4 Fc) VH: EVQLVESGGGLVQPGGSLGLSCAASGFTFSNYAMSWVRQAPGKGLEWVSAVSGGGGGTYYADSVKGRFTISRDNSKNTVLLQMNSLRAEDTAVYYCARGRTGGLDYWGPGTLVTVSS VL: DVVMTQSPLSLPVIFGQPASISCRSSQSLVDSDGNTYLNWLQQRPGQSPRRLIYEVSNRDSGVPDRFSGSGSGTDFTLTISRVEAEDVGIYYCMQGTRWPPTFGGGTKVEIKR
Result: 4
